Attribute: MIC of antifungal in combination with KKOO-NH2
- Tested on: A. fumigatus AF293
- experiment: Drug synergy (MIC in peptide-supplemented media)
- Assay type: cell-based, Aspergillus fumigatus
- measurement parameters: +8 μg/mL KKOO-NH2; RPMI1640, 37 °C, 48 h; CAS: paradoxical growth, MIC = well with <20% growth
The response must be a number in µg/mL with no trailing unit.

# query: MIC of antifungal in combination with KKOO-NH2 of entry `CC[C@H](C)C[C@H](C)CCCCCCCCC(=O)N[C@H]1C[C@@H](O)[C@@H](NCCN)NC(=O)[C@@H]2[C@@H](O)CCN2C(=O)[C@H]([C@H](O)CCN)NC(=O)[C@H]([C@H](O)[C@@H](O)c2ccc(O)cc2)NC(=O)[C@@H]2C[C@@H](O)CN2C(=O)[C@H]([C@@H](C)O)NC1=O`
0.031

# query: MIC of antifungal in combination with KKOO-NH2 of entry CCC(C)n1ncn(-c2ccc(N3CCN(c4ccc(OCC5COC(Cn6cncn6)(c6ccc(Cl)cc6Cl)O5)cc4)CC3)cc2)c1=O (stereo not shown)
0.031

Now look at this one.
# query: MIC of antifungal in combination with KKOO-NH2 of entry `C[C@@H]1[C@H](O)[C@@H](C)/C=C/C=C/C=C/C=C/C=C/C=C/C=C/[C@H](O[C@@H]2O[C@H](C)[C@@H](O)[C@H](N)[C@@H]2O)C[C@@H]2O[C@](O)(C[C@@H](O)C[C@@H](O)[C@H](O)CC[C@@H](O)C[C@@H](O)CC(=O)O[C@H]1C)C[C@H](O)[C@H]2C(=O)O`
0.5
